molecular target: DYRK3 (Homo sapiens, UniProt O43781); construct: purchased Carna Biosciences, Inc. 04-133; assay: Inhibition test on activity of DYRK family, mobility shift assay (MSA): DYRK3; assay type: biochemical; conditions: MSA, FITC-labeled DYRKtide peptide, ATP 20 μM; read-out: Inhibitory activity DYRK 3 (IC50 class)
Sequence (O43781 1-568 isoform O43781-2): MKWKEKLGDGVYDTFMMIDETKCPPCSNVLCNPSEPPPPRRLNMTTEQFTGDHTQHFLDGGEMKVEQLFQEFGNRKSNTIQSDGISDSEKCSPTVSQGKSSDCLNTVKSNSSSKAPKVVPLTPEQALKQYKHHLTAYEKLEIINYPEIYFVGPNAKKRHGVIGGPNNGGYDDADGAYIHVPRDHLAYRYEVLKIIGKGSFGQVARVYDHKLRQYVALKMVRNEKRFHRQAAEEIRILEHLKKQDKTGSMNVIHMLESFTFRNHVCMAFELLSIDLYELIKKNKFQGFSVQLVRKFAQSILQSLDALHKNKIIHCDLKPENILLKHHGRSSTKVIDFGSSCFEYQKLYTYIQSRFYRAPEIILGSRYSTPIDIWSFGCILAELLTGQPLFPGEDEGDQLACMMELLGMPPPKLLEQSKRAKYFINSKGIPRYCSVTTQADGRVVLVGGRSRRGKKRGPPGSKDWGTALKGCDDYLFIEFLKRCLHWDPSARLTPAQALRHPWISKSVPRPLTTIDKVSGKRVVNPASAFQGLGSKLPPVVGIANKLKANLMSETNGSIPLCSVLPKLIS
pIC50: −log10 of the molar value.
Measurement Type: pIC50

# input Can you look up the measured pIC50 of O=C1N[C@H]2CNCC[C@H]2N1c1nc2c3c(ccc2s1)OCCO3 [Example 51] for me?
# output 6.00 to 7.00

# input Can you look up the measured pIC50 of CN1CC[C@@H]2NC(=O)N(c3nc4c5c(ccc4s3)OCCO5)[C@@H]2C1 (racemic) [Example 76] for me?
# output ≤ 6.00

# input Can you look up the measured pIC50 of O=C1N[C@H]2CNC[C@H](F)[C@H]2N1c1nc2c3c(ccc2s1)OCC3 [Example 49] for me?
# output 6.00 to 7.00

# input Can you look up the measured pIC50 of CN1CC[C@@H]2[C@H](C1)NC(=O)N2c1nc2c3c(ccc2s1)OCC3 (relative stereo) [Example 9] for me?
# output 6.00 to 7.00

# input Can you look up the measured pIC50 of CN1CC[C@H]2NC(=O)N(c3nc4c5c(ccc4s3)OCC5)[C@H]2C1 (single isomer, unassigned) [Example 27] for me?
# output ≤ 6.00
